Molecular target: T1, monomeric recombinant human Notch3 extracellular domain (containing EGF like domains 1-11) fusion protein (human, UniProt Q9UM47 40-467)
T1 construct: domain: EGF like domains 1-11; also called monomeric rhNotch3
T1 sequence (looked up): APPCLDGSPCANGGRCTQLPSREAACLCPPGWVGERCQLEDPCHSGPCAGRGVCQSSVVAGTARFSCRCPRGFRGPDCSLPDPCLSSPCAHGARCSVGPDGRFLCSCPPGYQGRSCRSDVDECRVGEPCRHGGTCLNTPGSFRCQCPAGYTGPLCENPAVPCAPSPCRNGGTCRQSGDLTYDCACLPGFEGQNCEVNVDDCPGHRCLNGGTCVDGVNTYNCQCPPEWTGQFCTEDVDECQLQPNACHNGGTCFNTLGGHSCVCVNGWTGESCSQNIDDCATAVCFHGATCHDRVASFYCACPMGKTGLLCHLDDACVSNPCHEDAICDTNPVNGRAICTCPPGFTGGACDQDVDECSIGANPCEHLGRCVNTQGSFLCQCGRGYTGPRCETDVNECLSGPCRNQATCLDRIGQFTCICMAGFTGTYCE
Assay: SPR BIAcore T100, antibody captured by anti-human IgG Fc, monomeric rhNotch3 analyte, 37 C
Would you mind telling me the reported Kd of each entry?
Give bare numbers, in nM.

Indicate its recorded Kd; the binder in question is Hu4F11-71 (antibody, human IgG1, kappa, V domains shown, Humanized, human IgG1 kappa; Hv3-23 A28T T62S heavy + Kv2D-29 N28H kappa) VH: EVQLLESGGGLVQPGGSLRLSCAASGFTFSSYDMSWVRQAPGKGLEWVSYISRGGGSTYYPDSVKGRFTISRDNSKNTLYLQMNSLRAEDTAVYYCGRHATTAYWYFDVWGQGTMVTVSS VL: DVVMTQTPLSLSVTPGQPASISCRSSQSLVHTHGNTYLHWYLQKPGQSPQLLIYKVSNRFSGVPDRFSGSGSGTDFTLKISRVEAEDVGVYFCSQSTHVPWTFGQGTKVEIKR
3

Output Kd of Hu4F11-75 (antibody, human IgG1, kappa, V domains shown, Humanized, human IgG1 kappa; Hv3-23 A28T T62S heavy + Kv2D-29 N28Y kappa) VH: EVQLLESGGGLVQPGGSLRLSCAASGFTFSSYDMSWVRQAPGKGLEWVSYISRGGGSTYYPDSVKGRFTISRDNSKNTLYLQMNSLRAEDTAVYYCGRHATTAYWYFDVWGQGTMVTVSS VL: DVVMTQTPLSLSVTPGQPASISCRSSQSLVHTYGNTYLHWYLQKPGQSPQLLIYKVSNRFSGVPDRFSGSGSGTDFTLKISRVEAEDVGVYFCSQSTHVPWTFGQGTKVEIKR
3.4

# return recorded Kd for input Hu4F11-69 (antibody, human IgG1, kappa, V domains shown, Humanized, human IgG1 kappa; Hv3-23 A28T S31N T62S heavy + Kv2D-29 N28H kappa) VH: EVQLLESGGGLVQPGGSLRLSCAASGFTFSNYDMSWVRQAPGKGLEWVSYISRGGGSTYYPDSVKGRFTISRDNSKNTLYLQMNSLRAEDTAVYYCGRHATTAYWYFDVWGQGTMVTVSS VL: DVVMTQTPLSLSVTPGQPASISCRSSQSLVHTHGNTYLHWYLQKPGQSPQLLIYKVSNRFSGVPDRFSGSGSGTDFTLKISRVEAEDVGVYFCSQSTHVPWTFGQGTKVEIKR
2.9

Note down Kd recorded for Hu4F11-76 (antibody, human IgG1, kappa, V domains shown, Humanized, human IgG1 kappa; Hv3-23 S31H T62S heavy + Kv2D-29 N28Y kappa) VH: EVQLLESGGGLVQPGGSLRLSCAASGFAFSHYDMSWVRQAPGKGLEWVSYISRGGGSTYYPDSVKGRFTISRDNSKNTLYLQMNSLRAEDTAVYYCGRHATTAYWYFDVWGQGTMVTVSS VL: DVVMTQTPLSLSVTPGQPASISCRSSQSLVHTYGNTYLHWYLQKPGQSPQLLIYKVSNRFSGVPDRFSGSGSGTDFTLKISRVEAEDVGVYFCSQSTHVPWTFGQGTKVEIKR
3.3

Give Kd for Hu4F11-72 (antibody, human IgG1, kappa, V domains shown, Humanized, human IgG1 kappa; Hv3-23 S31H T62S heavy + Kv2D-29 N28H kappa) VH: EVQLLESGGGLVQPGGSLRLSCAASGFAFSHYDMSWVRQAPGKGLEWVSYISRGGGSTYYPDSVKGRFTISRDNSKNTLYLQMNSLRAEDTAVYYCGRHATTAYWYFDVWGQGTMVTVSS VL: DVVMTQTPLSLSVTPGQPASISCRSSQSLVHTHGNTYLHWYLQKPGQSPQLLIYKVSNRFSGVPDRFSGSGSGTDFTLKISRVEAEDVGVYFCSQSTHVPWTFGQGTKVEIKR
5.2

Quick batch: Kd for everything below.
1. Hu4F11-74 (antibody, human IgG1, kappa, V domains shown, Humanized, human IgG1 kappa; Hv3-23 A28T S31H T62S heavy + Kv2D-29 N28Y kappa) VH: EVQLLESGGGLVQPGGSLRLSCAASGFTFSHYDMSWVRQAPGKGLEWVSYISRGGGSTYYPDSVKGRFTISRDNSKNTLYLQMNSLRAEDTAVYYCGRHATTAYWYFDVWGQGTMVTVSS VL: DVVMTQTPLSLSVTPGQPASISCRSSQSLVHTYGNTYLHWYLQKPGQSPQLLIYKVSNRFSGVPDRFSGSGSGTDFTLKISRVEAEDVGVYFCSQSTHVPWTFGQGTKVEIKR
2. Hu4F11-77 (antibody, human IgG1, kappa, V domains shown, Humanized, human IgG1 kappa; Hv3-23 A28T S31N T62S heavy + Kv2D-29 N28Q kappa) VH: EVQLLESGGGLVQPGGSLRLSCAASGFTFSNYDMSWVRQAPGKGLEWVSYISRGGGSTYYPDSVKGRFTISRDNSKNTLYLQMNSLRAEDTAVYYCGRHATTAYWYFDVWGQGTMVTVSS VL: DVVMTQTPLSLSVTPGQPASISCRSSQSLVHTQGNTYLHWYLQKPGQSPQLLIYKVSNRFSGVPDRFSGSGSGTDFTLKISRVEAEDVGVYFCSQSTHVPWTFGQGTKVEIKR
3. Hu4F11-79 (antibody, human IgG1, kappa, V domains shown, Humanized, human IgG1 kappa; Hv3-23 A28T T62S heavy + Kv2D-29 N28Q kappa) VH: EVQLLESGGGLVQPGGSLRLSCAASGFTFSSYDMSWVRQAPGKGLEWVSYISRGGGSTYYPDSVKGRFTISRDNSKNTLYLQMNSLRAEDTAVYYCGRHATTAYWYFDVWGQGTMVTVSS VL: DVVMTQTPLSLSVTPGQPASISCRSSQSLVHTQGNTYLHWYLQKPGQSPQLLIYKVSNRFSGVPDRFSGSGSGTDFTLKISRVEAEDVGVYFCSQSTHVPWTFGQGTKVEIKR
4. Hu4F11-70 (antibody, human IgG1, kappa, V domains shown, Humanized, human IgG1 kappa; Hv3-23 A28T S31H T62S heavy + Kv2D-29 N28H kappa) VH: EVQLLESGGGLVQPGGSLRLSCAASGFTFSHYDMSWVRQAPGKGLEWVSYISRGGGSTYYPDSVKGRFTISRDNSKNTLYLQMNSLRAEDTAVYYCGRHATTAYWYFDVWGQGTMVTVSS VL: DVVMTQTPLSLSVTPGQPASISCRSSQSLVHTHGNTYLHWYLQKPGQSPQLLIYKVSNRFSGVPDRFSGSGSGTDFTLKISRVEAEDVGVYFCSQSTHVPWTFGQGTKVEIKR

[3.9, 3.3, 3.2, 3]

Give a short answer stating reported Kd for Hu4F11-73 (antibody, human IgG1, kappa, V domains shown, Humanized, human IgG1 kappa; Hv3-23 A28T S31N T62S heavy + Kv2D-29 N28Y kappa) VH: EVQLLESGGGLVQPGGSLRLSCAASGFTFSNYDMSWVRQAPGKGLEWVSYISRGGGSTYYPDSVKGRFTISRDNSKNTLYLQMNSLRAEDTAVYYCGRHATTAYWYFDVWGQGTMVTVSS VL: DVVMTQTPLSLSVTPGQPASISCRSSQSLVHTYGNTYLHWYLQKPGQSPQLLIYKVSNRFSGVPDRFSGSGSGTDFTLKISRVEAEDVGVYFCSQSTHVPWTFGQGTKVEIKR .
5.9
